Source: the supplement of paper PMC12645437

Target Desc: T1, CRBN, Q96SW2;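 also: pooled lentiviral library of zinc finger degron-EGFP fusions in mCherry-positive Jurkat cells, FACS-sorted after compound exposure, with degron abundance counted by next-generation sequencing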
T1 chain: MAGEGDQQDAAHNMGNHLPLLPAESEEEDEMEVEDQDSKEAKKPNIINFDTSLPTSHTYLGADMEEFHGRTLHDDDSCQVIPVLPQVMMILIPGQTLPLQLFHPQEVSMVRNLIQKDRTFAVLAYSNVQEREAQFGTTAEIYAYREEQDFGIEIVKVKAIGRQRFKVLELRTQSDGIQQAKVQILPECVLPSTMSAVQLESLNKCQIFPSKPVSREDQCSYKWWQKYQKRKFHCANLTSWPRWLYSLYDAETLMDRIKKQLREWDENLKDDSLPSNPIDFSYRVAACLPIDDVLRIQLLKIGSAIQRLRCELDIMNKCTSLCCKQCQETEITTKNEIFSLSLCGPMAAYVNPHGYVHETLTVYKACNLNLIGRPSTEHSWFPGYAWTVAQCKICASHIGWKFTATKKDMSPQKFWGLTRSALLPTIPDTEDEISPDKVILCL
Assay Text: log2 fold change of degron read counts, EGFP-low vs EGFP+ sorted cells (limma voom), compound-induced degradation; higher = more compound-induced degradation of the degron-EGFP fusion; degrons are variants of IKZF1/3 zinc finger 2; compound dose not given here
Measurement Context: Jurkat; 18 h; compound: compound 22 (5-morpholino-thalidomide)
The full ranking holds about 8,300 sequences; the median of “log2 fold change of degron read counts, EGFP-low vs EGFP+ sorted cells (limma voom), compound-induced degradation” is about -1.1, and the highest 2% start at about 3.2. This is one part of a sample in which the highest values are shown more often than they occur.
I'd be grateful if you could share measured log2 fold change of degron read counts for these entries.

Example cases with answers are listed next.
// query Look at this sequence and give its reported log2 fold change of degron read counts. FQCDICGAHFTQKGNLLRHIKL [46F_47Q_49D_50I_52G_53A_54H_55F_67L_, Q9UKT9]
// result -0.152

// query Can you check LHCEICGFQCTQKGNLLRHIKL [46L_47H_49E_50I_52G_53F_54Q_55C_67L_, Q9UKT9] next?
// result 2.27

// query Can you check FECDICGAHFTQKGNLLRHIKL [46F_47E_49D_50I_52G_53A_54H_55F_67L_, Q9UKT9] next?
// result -3.04

Continuing:
// query Look at this sequence and give its reported log2 fold change of degron read counts. FCCDICGAHFTQKGNLLRHIKL [46F_47C_49D_50I_52G_53A_54H_55F_67L_, Q9UKT9]
// result -0.464
